Biological target: benzodiazepine receptor of the rat cerebral cortex
Assay: Benzodiazepine receptor binding, competition with [3H]flunitrazepam
Conditions: [3H]flunitrazepam 0.4 nM, 4° C., 60 minutes
Description: Benzodiazepine Receptor Binding. Compound 1 and Indiplon were compared in their ability to bind to compete with [^3H] flunitrazepam (0.4 nM) for binding to the benzodiazepine receptor of the rat cerebral cortex using the method of Speth, R C et al., 1979, Life Sci., 24:351-358. Varying concentrations of Indiplon or Compound 1 (30 pM-1 μM) were used. Diazepam (3 μM) was used as a non-specific receptor binding compound. […] Quantification of binding was determined by scintillation counting.
We begin with a simple list: items and their reported IC50.
Quick note: give the figure in nM, leave out the unit.

compound="CC(=O)N(C)c1cccc(-c2ccnc3c(C(=O)c4cccs4)cnn23)c1 [Indiplon]" measurement_units=nM meas_value=3.6

Here's the next entry for you.
Entry CC(=O)N(C)c1cccc(-c2ccnc3c(C(=O)c4cccs4)cnn23)c1 [Compound 1] : reported IC50 = ?
2.9
